tested on: CCRF-CEM leukemia; assay: NCI tumour cell line growth inhibition, 48 h
Reported TGI values follow for various compounds

Example cases with answers are listed next.
> print(dat)
                                   compound  endpoint.name  measured
1  ClC(Cl)=C(Cl)C1(Cl)CC1COCc1ccccc1 (stereo unspecified)            TGI     49 µM
2            CNc1nnc(CCCCCCCCc2nnc(NC)o2)o1            TGI     43 µM
3  Cc1ccc(S(=O)(=O)NC(CCC(=O)NNc2ccccc2)C(=O)NNc2ccccc2)cc1 (stereo unspecified)            TGI  > 100 µM
4  CCOC(=O)c1ccc(Nc2nc3ccccc3nc2-c2cccs2)cc1            TGI  > 100 µM
5  COc1ccccc1OCC(COC(=O)Nc1ccccc1)OC(=O)Nc1ccccc1 (stereo unspecified)            TGI  > 100 µM
6  Cc1ccc(S(=O)(=O)N/N=C(\c2nc3ccc(Cl)cc3[nH]c2=O)C(O)c2ccco2)cc1 (stereo unspecified)            TGI  > 100 µM

"Cn1cnc(N)c(N=O)c1=O" has a reported TGI of > 10 µM

"CCCCc1ccc(Nc2ncc3ncn(COCCO)c3n2)cc1" has a reported TGI of 60.6 µM

"Cn1nc2ccc(Nc3cc(=O)[nH]c4ccc5nn(C)nc5c34)cc2n1" has a reported TGI of > 100 µM

"O=[N+]([O-])c1cccc(/C=N/NC2=CS(=O)(=O)C=C2)c1" has a reported TGI of > 100 µM

"Cc1ccc(/C=C(\C#N)c2cc3ccccc3n2C)cc1" has a reported TGI of > 100 µM
